// reported IC50 for each item listed
Molecular target: Extracellular calcium-sensing receptor (Homo sapiens, UniProt P41180)
Sequence (P41180 whole entry): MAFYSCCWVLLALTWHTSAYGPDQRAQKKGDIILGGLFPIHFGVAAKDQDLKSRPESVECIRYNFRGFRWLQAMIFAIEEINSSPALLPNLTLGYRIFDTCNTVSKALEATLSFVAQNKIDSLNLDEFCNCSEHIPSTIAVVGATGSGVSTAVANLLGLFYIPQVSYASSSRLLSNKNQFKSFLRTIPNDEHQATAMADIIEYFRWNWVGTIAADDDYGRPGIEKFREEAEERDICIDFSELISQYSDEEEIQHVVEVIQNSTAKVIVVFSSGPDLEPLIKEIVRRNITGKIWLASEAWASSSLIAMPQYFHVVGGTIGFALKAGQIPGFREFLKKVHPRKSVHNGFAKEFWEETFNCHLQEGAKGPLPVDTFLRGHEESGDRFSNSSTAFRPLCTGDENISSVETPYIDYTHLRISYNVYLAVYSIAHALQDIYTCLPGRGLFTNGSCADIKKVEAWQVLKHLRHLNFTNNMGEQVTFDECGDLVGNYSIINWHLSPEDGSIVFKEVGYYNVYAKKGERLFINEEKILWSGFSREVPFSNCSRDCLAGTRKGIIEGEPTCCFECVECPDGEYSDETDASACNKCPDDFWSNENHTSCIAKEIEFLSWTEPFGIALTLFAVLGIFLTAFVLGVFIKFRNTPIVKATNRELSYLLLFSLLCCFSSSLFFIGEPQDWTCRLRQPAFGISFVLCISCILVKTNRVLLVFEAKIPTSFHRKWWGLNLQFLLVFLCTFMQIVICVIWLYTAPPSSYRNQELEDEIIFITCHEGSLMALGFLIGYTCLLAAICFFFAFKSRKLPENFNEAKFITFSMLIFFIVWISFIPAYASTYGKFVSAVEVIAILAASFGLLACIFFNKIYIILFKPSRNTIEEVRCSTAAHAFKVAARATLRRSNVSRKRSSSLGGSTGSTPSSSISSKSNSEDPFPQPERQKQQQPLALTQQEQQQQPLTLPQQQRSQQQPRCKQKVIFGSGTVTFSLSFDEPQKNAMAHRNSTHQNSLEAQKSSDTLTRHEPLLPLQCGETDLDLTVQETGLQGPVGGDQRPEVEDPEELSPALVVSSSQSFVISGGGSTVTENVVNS
Assay: Inhibition of CaSR expressed in CHO cells incubated with compound for 10 mins measured after 1 hr by [35S]GTPgammaS binding assay
REPORTED_ENDPOINT: IC50 (nM)

{"COMPOUND": "CCC(CC)(NC(=O)c1cnn2c1NC(c1ccccc1)CC2(C)C)c1ccc(F)cc1 (centres undefined)", "REPORTED_ENDPOINT": "IC50", "OUTPUT_UNIT": "nM", "MEASURED": 7.3}
{"COMPOUND": "CCC(CC)(NC(=O)c1cnn2c1NC(c1ccccc1)CC2(C)C)c1ccc(OCc2ccccc2)cc1 (centres undefined)", "REPORTED_ENDPOINT": "IC50", "OUTPUT_UNIT": "nM", "MEASURED": 8.5}
{"COMPOUND": "CCC(CC)(NC(=O)c1cnn2c1NC(c1ccccc1)CC2(C)C)c1ccccc1F (centres undefined)", "REPORTED_ENDPOINT": "IC50", "OUTPUT_UNIT": "nM", "MEASURED": 12}
{"COMPOUND": "CCC(=O)Oc1ccc(C(CC)(CC)NC(=O)c2cnn3c2NC(c2ccccc2)CC3(C)C)cc1 (centres undefined)", "REPORTED_ENDPOINT": "IC50", "OUTPUT_UNIT": "nM", "MEASURED": 12}
